- Tested on: MDA-MB-468 breast
- protocol: NCI tumour cell line growth inhibition, 384-well format
Listed molecules paired with reported TGI
Lab book: enter the figure in µM, no units written.

Item: `COc1ccc(Cl)c(Nc2nc3ccccc3nc2NS(=O)(=O)c2cccc(NC(=O)C(C)(C)N)c2)c1` | TGI: 10.1

More entries:
Item: `CC[C@H](CO)Nc1nc(NCc2ccccc2)c2ncn(C(C)C)c2n1` | TGI: 37.9

Item: `Cc1[nH]c2ccc(F)cc2c1-c1nc2c3cccnc3c3ncccc3c2[nH]1` | TGI: 0.214

Item: `NC(=O)Nc1cc(-c2cccc(F)c2)sc1C(=O)N[C@H]1CCCNC1` | TGI: 0.698

---

Listed molecules paired with reported GI50
- System: COLO 205 colon
- protocol: NCI tumour cell line growth inhibition, 384-well format

Item: `CC[C@H](CO)Nc1nc(NCc2ccccc2)c2ncn(C(C)C)c2n1` | GI50: 21.3 µM

Item: `O=c1c(O)c(-c2ccc(O)c(O)c2)oc2cc(O)cc(O)c12` | GI50: > 100 µM

Item: `Cc1[nH]c2ccc(F)cc2c1-c1nc2c3cccnc3c3ncccc3c2[nH]1` | GI50: 0.0353 µM

Let us examine a further case.
Item: `Cc1nn(C)c(COc2ccc(N3CCN(S(=O)(=O)N(C)C)CC3)cc2)c1-c1cccc2c(CCCOc3cccc4ccccc34)c(C(=O)O)n(CCN3CCOCC3)c12` | GI50: 4.33 µM

---

- Tested on: NCI-H460 NSCLC
Pick one: active, inactive

Recorded test outcome, item `CC[C@H](CO)Nc1nc(NCc2ccccc2)c2ncn(C(C)C)c2n1` inactive

Recorded test outcome, item `Cc1[nH]c2ccc(F)cc2c1-c1nc2c3cccnc3c3ncccc3c2[nH]1` active

Recorded test outcome, item `NC(=O)Nc1cc(-c2cccc(F)c2)sc1C(=O)N[C@H]1CCCNC1` active

Recorded test outcome, item `NC(=O)c1ccc(-c2nc(-c3ccc4c(c3)OCO4)c(-c3ccccn3)[nH]2)cc1` inactive

Turning to the following compound.
Recorded test outcome, item `O=c1c(O)c(-c2ccc(O)c(O)c2)oc2cc(O)cc(O)c12` inactive

---

- Test system: SK-MEL-28 melanoma
- protocol: NCI tumour cell line growth inhibition, 384-well format; in the data active = GI50 below about 0.43 µM; inactive = the rest
Pick one: active, inactive

Recorded test outcome, item `Cc1[nH]c2ccc(F)cc2c1-c1nc2c3cccnc3c3ncccc3c2[nH]1` active

Recorded test outcome, item `Cc1cnc(CNC(=O)c2c(=O)c3ccc(N4CCCN(C)CC4)nc3n3c2sc2ccccc23)cn1` inactive

Recorded test outcome, item `NC(=O)c1ccc(-c2nc(-c3ccc4c(c3)OCO4)c(-c3ccccn3)[nH]2)cc1` inactive

Turning to the following compound.
Recorded test outcome, item `Cc1nn(C)c(COc2ccc(N3CCN(S(=O)(=O)N(C)C)CC3)cc2)c1-c1cccc2c(CCCOc3cccc4ccccc34)c(C(=O)O)n(CCN3CCOCC3)c12` inactive

---

Listed compounds paired with reported TGI
- Test system: ACHN renal
- protocol: NCI tumour cell line growth inhibition, 384-well format
Lab book: enter the figure in nM, no units written.

In the examples that follow, each entry is paired with its recorded TGI.
Item: `Cc1[nH]c2ccc(F)cc2c1-c1nc2c3cccnc3c3ncccc3c2[nH]1` | TGI: 686

Item: `NC(=O)Nc1cc(-c2cccc(F)c2)sc1C(=O)N[C@H]1CCCNC1` | TGI: 295

More entries:
Item: `COc1ccc(Cl)c(Nc2nc3ccccc3nc2NS(=O)(=O)c2cccc(NC(=O)C(C)(C)N)c2)c1` | TGI: 23300
